experiment: Physical stability study of spray-dried amorphous APIs stored at 75% RH, 25 °C (solid state by Raman, MDSC, PXRD)
Format: physicochemical
assay-conditions: spray-dried amorphous API, 75% RH at 25 °C, up to 168 days
Recorded measurements of Time to Start Crystallization, one per entry

| compound | limit-operator | Time to Start Crystallization / days |
| --- | --- | --- |
| Cc1ccccc1N1C(=O)c2cc(S(N)(=O)=O)c(Cl)cc2NC1C (stereo not shown) [Metolazone, metolazone] | > | 168 |
| CC1Cc2ccccc2N1NC(=O)c1ccc(Cl)c(S(N)(=O)=O)c1 (stereo not shown) [Indapamide, indapamide] | > | 168 |
| Nc1ccc(S(=O)(=O)Nc2nccs2)cc1 [Sulfathiazole, sulfathiazole] | = | 1 |
| NS(=O)(=O)c1cc2c(cc1Cl)NCNS2(=O)=O [Hydrochlorothiazide, hydrochlorothiazide] | = | 1 |
